target: Peroxisome proliferator-activated receptor gamma (Homo sapiens); assay: ATG_PPARg_TRANS: Attagene TRANS-FACTORIAL HepG2 Assay for human Peroxisome Proliferator-activated Receptor-gamma (PPARg) (AID 2283007)
Records with an inconclusive call do not appear. Activity calls are given as the source filed them. Rule for the calls: active = hit-call score of the fitted dose curve at least 0.9, where 1 is the maximum; inconclusive = response in the unintended direction; inactive = score below 0.9.
Parameter: AC50

Use these answered entries as a reference point.
>>> result_value("C=CCC1=C(C)C(OC(=O)C2C(C=C(C)C)C2(C)C)CC1=O (stereo not given)")
"18.3 µM (active) [middle of 6 runs]"
>>> result_value("CC1COC(Cn2cncn2)(c2ccc(Oc3ccc(Cl)cc3)cc2Cl)O1 (stereo not given)")
"inactive"
>>> result_value("CCCC1COC(Cn2cncn2)(c2ccc(Cl)cc2Cl)O1 (stereo not given)")
"inactive"
>>> result_value("CO/C=C(/C(=O)OC)c1ccccc1Oc1cc(Oc2ccccc2C#N)ncn1")
"inactive"
>>> result_value("C=CCC1=C(C)[C@@H](OC(=O)[C@@H]2[C@@H](C=C(C)C)C2(C)C)CC1=O")
"9.45 µM (active)"

Next compound, AC50 to be filled in.
What value of AC50 has been recorded for this entry: CCNc1nc(Cl)nc(NCC)n1
inactive

Data provenance is PubChem BioAssay (EPA / NIEHS).
